Please respond with reported AntiCD3/CD28 (CD4 T cell proliferation) repeat 1 for every item in the list.
System Name: chimeric BTLA of humanised-BTLA mice (human extracellular region, murine transmembrane and signaling … (human; mouse, UniProt Q7TSA3 184-306, limits assumed); note: test concentration or dose not given here
Sequence (Q7TSA3 other isoform, or with tags, fused parts or gaps mutant limits assumed): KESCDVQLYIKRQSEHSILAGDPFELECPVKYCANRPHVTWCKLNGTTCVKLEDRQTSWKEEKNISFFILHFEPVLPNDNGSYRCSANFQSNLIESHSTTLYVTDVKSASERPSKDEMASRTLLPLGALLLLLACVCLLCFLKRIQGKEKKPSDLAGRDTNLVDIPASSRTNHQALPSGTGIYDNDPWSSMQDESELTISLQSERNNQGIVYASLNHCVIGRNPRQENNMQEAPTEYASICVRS
Assay Method Text: cell-based or functional assay
Put your answer as a value accompanied by its unit after it.

Would you please look over these solved cases?
Binder	Result
11.5.1 (antibody, V domains shown, mouse IgG1k hybridoma antibody) VH: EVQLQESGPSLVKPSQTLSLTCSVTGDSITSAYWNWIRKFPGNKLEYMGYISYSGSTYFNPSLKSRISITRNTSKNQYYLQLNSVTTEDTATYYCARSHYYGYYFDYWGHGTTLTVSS VL: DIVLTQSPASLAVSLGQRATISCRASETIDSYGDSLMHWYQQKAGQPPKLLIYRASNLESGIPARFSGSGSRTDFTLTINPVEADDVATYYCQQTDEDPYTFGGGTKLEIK	21 % inhibition
21C7 (antibody, IgG1, V domains shown, mIgG1) VH: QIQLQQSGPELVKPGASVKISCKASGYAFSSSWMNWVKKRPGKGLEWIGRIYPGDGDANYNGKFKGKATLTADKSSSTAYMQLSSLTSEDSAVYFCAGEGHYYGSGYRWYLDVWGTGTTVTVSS VL: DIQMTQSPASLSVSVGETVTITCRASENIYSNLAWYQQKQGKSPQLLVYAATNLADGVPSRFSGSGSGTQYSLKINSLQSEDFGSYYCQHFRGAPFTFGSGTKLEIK	10 % inhibition
8B4 (antibody, IgG1, V domains shown, mIgG1) VH: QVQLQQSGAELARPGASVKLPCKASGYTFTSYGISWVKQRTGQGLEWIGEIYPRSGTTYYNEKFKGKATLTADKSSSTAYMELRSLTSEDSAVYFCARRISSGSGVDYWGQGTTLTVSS VL: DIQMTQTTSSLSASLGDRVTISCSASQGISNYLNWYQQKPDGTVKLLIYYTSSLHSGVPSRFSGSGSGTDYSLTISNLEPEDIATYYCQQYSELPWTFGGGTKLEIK	20 % inhibition
11.5.1 D265A (antibody, V domains shown) VH: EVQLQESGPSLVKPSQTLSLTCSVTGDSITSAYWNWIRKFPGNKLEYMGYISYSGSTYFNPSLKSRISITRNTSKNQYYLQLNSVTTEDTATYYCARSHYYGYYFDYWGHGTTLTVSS VL: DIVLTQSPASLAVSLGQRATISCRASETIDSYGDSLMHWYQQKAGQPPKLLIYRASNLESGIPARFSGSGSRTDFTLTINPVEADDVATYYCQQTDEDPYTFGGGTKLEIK	-3 % inhibition

With those in mind, consider the next binder.
Lookup result for 831 (antibody, IgG1, V domains shown) VH: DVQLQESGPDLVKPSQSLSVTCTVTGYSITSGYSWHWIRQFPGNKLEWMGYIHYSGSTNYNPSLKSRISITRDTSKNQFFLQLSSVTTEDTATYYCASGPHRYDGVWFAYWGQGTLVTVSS VL: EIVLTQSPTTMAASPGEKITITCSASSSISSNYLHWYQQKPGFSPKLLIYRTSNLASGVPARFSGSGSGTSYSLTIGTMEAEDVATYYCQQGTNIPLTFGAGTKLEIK ; measured AntiCD3/CD28 (CD4 T cell proliferation) repeat 1: 10 % inhibition
